B1: tRNA (parent)
chain: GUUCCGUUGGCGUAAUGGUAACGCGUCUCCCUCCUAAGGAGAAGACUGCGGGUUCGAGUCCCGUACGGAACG

- Variants of: B1
- ASSAY SUMMARY: yeast fitness relative to wild type (ratio to wild type); higher = fitter; tRNA-Arg(CCU), competitive growth, 37 C, YPD
This sample holds only a part of the variants without activity.
Lab note: anything with yeast fitness at or over 0.6 counts as yes; the rest go in no.

Answered cases to consult:
GUUCCGUUGGCGUAAUGGUAACGCGUCUACCUCCUAAGGAGAAGAUUGCGGGUUCGAGUUCCGUACGGAACG [C29A C46U C60U]: no
GUUCCGUUGCCGUAAUGGUAACGCGUCUCCCUCCUAAGGAGAAGACUGCGGAUUCGAGUCCCGUACGGAACG [G10C G52A]: yes
GUUCCGUUGGCGUAAUGGUAACGCGACUCCCUCCUAAGGAGAAGACUGUGGGUUCGUGUCCCGUACGGAACG [U26A C49U A57U]: no
GUUUGGUUGGCGUAAUGGUAACGCGUCUCCGUCCUAAGGAGAAGACUGCCGGUUCGAGUCCCGUACGGAACG [C4U C5G C31G G50C]: no

Identify whether the reported yeast fitness of the following variant is 0.6 or greater: GUUCCGUAGGCAUCAUGGUAACGCGUCUCCAUCCUAAGGACAAGACUGAGGGUUCAAGUCCCGUACGGAACG [U8A G12A A14C C31A G41C C49A G56A] no

Is yeast fitness for GUUCCGUUGGCGUAAUGGUAACACGUCUCCCUCCUAAGGAGAUGACUGCGGGUUCGAGUCCCGUUCGGAACG [G23A A43U A65U] at or above 0.6? no
